# Test System: Human Peroxisome Proliferator-Activated Receptor (PPAR)α (Homo sapiens)
# Construct: expressed in transfected cells
# Sequence (Q07869 239-466 limits assumed): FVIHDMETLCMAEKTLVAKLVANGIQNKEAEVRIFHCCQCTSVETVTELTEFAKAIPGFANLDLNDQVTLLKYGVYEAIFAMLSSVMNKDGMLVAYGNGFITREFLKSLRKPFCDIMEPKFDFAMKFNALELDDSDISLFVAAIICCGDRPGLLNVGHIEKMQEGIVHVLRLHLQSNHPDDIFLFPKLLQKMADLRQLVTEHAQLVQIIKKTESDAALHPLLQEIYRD
# Assay Protocol: Transactivation test for human PPARα (GAL4-hPPARαLBD luciferase reporter in CV-1 cells)
# Assay type: cell-based
# Experimental Setup: CV-1 cells, GAL4-hPPARαLBD, luciferase activity after 24 hr; read-out: transactivation action (EC50, nmol/l)
Readout Kind: EC50

molecule="CC(C)(Sc1nc(C(O)COc2ccc(-c3ccc(F)cc3)cc2)cs1)C(=O)O (stereo not shown)" value_measured="8.4 nmol/L"
molecule=CC(C)(Sc1nc(C(=O)COc2ccc(-c3ccc(F)cc3)cc2)cs1)C(=O)O value_measured="4.7 nmol/L"
molecule=CC(C)(Sc1nc([C@H](O)COc2ccc(-c3ccc(F)cc3)cc2)cs1)C(=O)O value_measured="3.1 nmol/L"
molecule=CC(C)(Sc1nc(CCOc2ccc(-c3ccc(F)cc3)cc2)cs1)C(=O)O value_measured="10.4 nmol/L"
